Source of measurements: ChEMBL document CHEMBL3137667

I'd be grateful if you could share measured Hepatotoxicity (acute) for these entries.
assay: Highest frequency of acute liver toxicity observed during clinical trials, expressed as a percentage. [column '% AIGUE' in source]; details: human
The response must be a number in % with no trailing unit.

Ask: Item under review: CC(C)[C@H](N)C(=O)OCC(CO)OCn1cnc2c(=O)nc(N)[nH]c21 (stereo partly specified) [VALGANCICLOVIR] . Reported Hepatotoxicity (acute)?
Result: 0

Ask: Item under review: CN(C)C(=O)Oc1cc(OC(=O)N(C)C)cc(C(O)CNC(C)(C)C)c1 (stereo unspecified) [BAMBUTEROL] . Reported Hepatotoxicity (acute)?
Result: 0

Ask: Item under review: COc1ccc(OC[C@H]2CN(C)CC[C@@H]2c2ccccc2)cc1 [FEMOXETINE] . Reported Hepatotoxicity (acute)?
Result: 0

Ask: Item under review: C[C@@](Cc1ccc(O)c(O)c1)(NN)C(=O)O.O [CARBIDOPA] . Reported Hepatotoxicity (acute)?
Result: 0

Ask: Item under review: OCC(Br)(Br)Br [TRIBROMOETHANOL] . Reported Hepatotoxicity (acute)?
Result: 0.1

Ask: Item under review: CO/N=C(\C(=O)N[C@@H]1C(=O)N2C(C(=O)O)=C(COC(C)=O)CS[C@H]12)c1csc(N)n1 [CEFOTAXIME] . Reported Hepatotoxicity (acute)?
Result: 3.3

Ask: Item under review: COCC1=C(C(=O)OC(C)OC(=O)OC(C)C)N2C(=O)[C@@H](NC(=O)/C(=N\OC)c3csc(N)n3)[C@H]2SC1 (stereo partly specified) [CEFPODOXIME PROXETIL] . Reported Hepatotoxicity (acute)?
Result: 0

Ask: Item under review: CC(=O)CCCCn1c(=O)c2c(ncn2C)n(C)c1=O [PENTOXIFYLLINE] . Reported Hepatotoxicity (acute)?
Result: 0

Ask: Item under review: CO/N=C(\C(=O)N[C@@H]1C(=O)N2C(C(=O)O)=CCS[C@H]12)c1csc(N)n1 [CEFTIZOXIME] . Reported Hepatotoxicity (acute)?
Result: 1.4

Ask: Item under review: COc1c2occc2c(OC)c2c(=O)cc(C)oc12 [KHELLIN] . Reported Hepatotoxicity (acute)?
Result: 0

Ask: Item under review: Nc1ccc(C(=O)[O-])cc1.[K+] [AMINOBENZOATE POTASSIUM] . Reported Hepatotoxicity (acute)?
Result: 0

Ask: Item under review: O=C(CCCN1CCC(C(=O)c2ccc(F)cc2)CC1)c1ccc(F)cc1 [LENPERONE] . Reported Hepatotoxicity (acute)?
Result: 0

Ask: Item under review: CCc1oc2ccccc2c1C(=O)c1cc(I)c(O)c(I)c1 [BENZIODARONE] . Reported Hepatotoxicity (acute)?
Result: 0

Ask: Item under review: CC(Cc1ccccc1)NN (stereo unspecified) [PHENIPRAZINE] . Reported Hepatotoxicity (acute)?
Result: 0

Ask: Item under review: CCN1CCC[C@H]1CNC(=O)c1c(O)c(Cl)cc(Cl)c1OC [RACLOPRIDE] . Reported Hepatotoxicity (acute)?
Result: 0

Ask: Item under review: Cc1ccc(-c2nc3ccc(C)cn3c2CC(=O)N(C)C)cc1 [ZOLPIDEM] . Reported Hepatotoxicity (acute)?
Result: 0

Ask: Item under review: CC(C)N(CCC(C(N)=O)(c1ccccc1)c1ccccn1)C(C)C (stereo unspecified) [DISOPYRAMIDE] . Reported Hepatotoxicity (acute)?
Result: 0.1

Ask: Item under review: CN(C)CCCN1c2ccccc2Sc2ccccc21 [PROMAZINE] . Reported Hepatotoxicity (acute)?
Result: 0

Ask: Item under review: CC(C)NCC(O)COc1cccc2ccccc12 (stereo unspecified) [PROPRANOLOL] . Reported Hepatotoxicity (acute)?
Result: 0

Ask: Item under review: COc1ccc2c(c1)c(CC(=O)OCC(=O)O)c(C)n2C(=O)c1ccc(Cl)cc1 [ACEMETACIN] . Reported Hepatotoxicity (acute)?
Result: 0

Ask: Item under review: O=C(c1ccccc1)c1ccc2n1CCC2C(=O)O (stereo unspecified) [KETOROLAC] . Reported Hepatotoxicity (acute)?
Result: 1

Ask: Item under review: CC(=O)c1ccc2c(c1)N(CC(C)N(C)C)c1ccccc1S2 (stereo unspecified) [ACEPROMETAZINE] . Reported Hepatotoxicity (acute)?
Result: 0

Ask: Item under review: CCCCNC(=O)NS(=O)(=O)c1ccc(N)cc1 [CARBUTAMIDE] . Reported Hepatotoxicity (acute)?
Result: 1.5

Ask: Item under review: CCN(CC)C(=O)N1CCN(C)CC1 [DIETHYLCARBAMAZINE] . Reported Hepatotoxicity (acute)?
Result: 0

Ask: Item under review: COC(=O)Nc1nc2ccc(C(=O)c3ccccc3)cc2[nH]1 [MEBENDAZOLE] . Reported Hepatotoxicity (acute)?
Result: 0

Ask: Item under review: CCCCCOC(=O)Nc1nc(=O)n([C@@H]2O[C@H](C)[C@@H](O)[C@H]2O)cc1F [CAPECITABINE] . Reported Hepatotoxicity (acute)?
Result: 0

Ask: Item under review: COc1ccc2[nH]c([S+]([O-])Cc3ncc(C)c(OC)c3C)nc2c1 (stereo unspecified) [OMEPRAZOLE] . Reported Hepatotoxicity (acute)?
Result: 3.1

Ask: Item under review: c1ccc2[nH]c(-c3cscn3)nc2c1 [THIABENDAZOLE] . Reported Hepatotoxicity (acute)?
Result: 0

Ask: Item under review: Fc1ccc([C@@H]2CCNC[C@H]2COc2ccc3c(c2)OCO3)cc1 [PAROXETINE] . Reported Hepatotoxicity (acute)?
Result: 2

Ask: Item under review: O=c1[nH]c2ccccc2n1C1CCN(CCCC(c2ccc(F)cc2)c2ccc(F)cc2)CC1 [PIMOZIDE] . Reported Hepatotoxicity (acute)?
Result: 0

Ask: Item under review: CN1C(=O)OC(C)(C)C1=O [TRIMETHADIONE] . Reported Hepatotoxicity (acute)?
Result: 0

Ask: Item under review: COc1cc(NS(C)(=O)=O)ccc1Nc1c2ccccc2nc2ccccc12 [AMSACRINE] . Reported Hepatotoxicity (acute)?
Result: 0

Ask: Item under review: COc1nc(C)ccc1CN1CC1C#N (stereo unspecified) [CIAMEXON] . Reported Hepatotoxicity (acute)?
Result: 0

Ask: Item under review: CC(=O)Nc1ccc(OCC(O)CNC(C)C)cc1 (stereo unspecified) [PRACTOLOL] . Reported Hepatotoxicity (acute)?
Result: 0

Ask: Item under review: O=C(O)c1ccccc1C(=O)Nc1ccc(S(=O)(=O)Nc2nccs2)cc1 [PHTHALYLSULFATHIAZOLE] . Reported Hepatotoxicity (acute)?
Result: 0

Ask: Item under review: CCN1CCCC1CNC(=O)c1cc(S(=O)(=O)CC)c(N)cc1OC (stereo unspecified) [AMISULPRIDE] . Reported Hepatotoxicity (acute)?
Result: 0

###

I'd be grateful if you could share measured Hepatotoxicity (moderate) for these entries.
assay: Highest frequency of moderate liver toxicity observed during clinical trials, expressed as a percentage. [column '% BIOL' in source]; details: human
The response must be a number in % with no trailing unit.

Ask: Item under review: "CO[C@H]1/C=C/O[C@@]2(C)Oc3c(C)c(O)c4c(O)c(c5c(nc6cc(C)ccn65)c4c3C2=O)NC(=O)/C(C)=C\C=C\[C@H](C)[C@H](O)[C@@H](C)[C@@H](O)[C@@H](C)[C@H](OC(C)=O)[C@@H]1C" . Reported Hepatotoxicity (moderate)?
Result: 26.7

Ask: Item under review: "O=C(O)c1ccccc1Nc1cccc(C(F)(F)F)c1" . Reported Hepatotoxicity (moderate)?
Result: 0

Ask: Item under review: "CC[C@H]1OC(=O)[C@H](C)[C@@H](O[C@H]2C[C@@](C)(OC)[C@@H](O)[C@H](C)O2)[C@H](C)[C@@H](O[C@@H]2O[C@H](C)C[C@H](N(C)C)[C@H]2O)[C@](C)(O)C[C@@H](C)/C(=N\OCOCCOC)[C@H](C)[C@@H](O)[C@]1(C)O" . Reported Hepatotoxicity (moderate)?
Result: 22.6

Ask: Item under review: "CO[C@@H]1O[C@H](CO)[C@H](O)[C@H](O[C@@H]2O[C@@H](C(=O)O)[C@@H](OC)[C@H](O)[C@H]2O)[C@H]1NC(C)=O" . Reported Hepatotoxicity (moderate)?
Result: 0

Ask: Item under review: "CC[C@]1(O)C[C@@H]2CN(CCc3c([nH]c4ccccc34)[C@@](C(=O)OC)(c3cc4c(cc3OC)N(C)[C@H]3[C@@](O)(C(N)=O)[C@H](O)[C@]5(CC)C=CCN6CC[C@]43[C@@H]65)C2)C1" . Reported Hepatotoxicity (moderate)?
Result: 9.1

Ask: Item under review: CCN1CCCC1CNC(=O)c1cc(S(=O)(=O)CC)c(N)cc1OC (configuration not stated) [AMISULPRIDE] . Reported Hepatotoxicity (moderate)?
Result: 0

Ask: Item under review: "COc1ccc2nc(NC(=O)Nc3ccccc3)sc2c1" . Reported Hepatotoxicity (moderate)?
Result: 70
